# Protocol notes: Solubility of compounds at different pH
# Type: physicochemical
# Assay setup: 30 °C, pH 7.4, aqueous buffer, thermodynamic from solid; 20 hours incubation; Phosphate Buffer, pH 7.40; read-out: Absolute Solubility
Measure: solubility at 20 h (µg/mL)
Form entry: value (µg/mL) — number only.

Lookup: Sample O=C(/N=c1\sn(Cc2ccc(Cl)cc2)c(=O)n1COP(=O)([O-])[O-])c1ccc(Cl)cc1.[Na+].[Na+] — what was its solubility at 20 h?
Found: 98

----------
# Protocol notes: Single dose oral pharmacokinetic study of Compounds 1 and 3 in Sprague Dawley rats
# Format: in vivo
# Assay setup: male, Sprague Dawley, rat, plasma, 50 mg/kg b.w.; after oral Compound 1, 50 mg/kg; 1.00 h
Measure: concentration at 1 h (ng/mL)
Form entry: value (ng/mL) — number only.

Lookup: Sample O=C(Nc1nc(=O)n(Cc2ccc(Cl)cc2)s1)c1ccc(Cl)cc1 [Compound 1] — what was its concentration at 1 h?
Found: 4240

----------
# Protocol notes: Single dose oral pharmacokinetic study of Compounds 1 and 3 in Sprague Dawley rats
# Type: in vivo
# Assay setup: male, Sprague Dawley, rat, plasma, 50 mg/kg b.w.; after oral Compound 1, 50 mg/kg; 8.00 h
Measure: concentration at 8 h (ng/mL)
Form entry: value (ng/mL) — number only.

Lookup: Sample O=C(Nc1nc(=O)n(Cc2ccc(Cl)cc2)s1)c1ccc(Cl)cc1 — what was its concentration at 8 h?
Found: 19300

----------
# Protocol notes: Single dose oral pharmacokinetic study of Compounds 1 and 3 in Sprague Dawley rats
# Format: in vivo
# Assay setup: male, Sprague Dawley, rat, plasma, 50 mg/kg b.w.; after oral Compound 1, 50 mg/kg; 4.00 h
Measure: concentration at 4 h (ng/mL)
Form entry: value (ng/mL) — number only.

Lookup: Sample O=C(Nc1nc(=O)n(Cc2ccc(Cl)cc2)s1)c1ccc(Cl)cc1 [Compound 1] — what was its concentration at 4 h?
Found: 14000

----------
# Protocol notes: Solubility of compounds at different pH
# Assay type: physicochemical
# Assay setup: 30 °C, pH 4.5, aqueous buffer, thermodynamic from solid; 20 hours incubation; Acetate Buffer, pH 4.50; read-out: Absolute Solubility
Measure: solubility at 20 h (µg/mL)
Form entry: value (µg/mL) — number only.

Lookup: Sample O=C(/N=c1\sn(Cc2ccc(Cl)cc2)c(=O)n1COP(=O)([O-])[O-])c1ccc(Cl)cc1.[Na+].[Na+] [Compound 5] — what was its solubility at 20 h?
Found: 15

----------
# Protocol notes: Single dose oral pharmacokinetic study of Compounds 1 and 3 in Sprague Dawley rats
# Format: in vivo
# Assay setup: male, Sprague Dawley, rat, plasma; after oral Compound 1, 50 mg/kg; 48.00 h
Measure: concentration at 48 h (ng/mL)
Form entry: value (ng/mL) — number only.

Lookup: Sample O=C(Nc1nc(=O)n(Cc2ccc(Cl)cc2)s1)c1ccc(Cl)cc1 — what was its concentration at 48 h?
Found: 720

----------
# Protocol notes: Single dose oral pharmacokinetic study of Compounds 1 and 3 in Sprague Dawley rats
# Assay type: in vivo
# Assay setup: male, Sprague Dawley, rat, plasma, 50 mg/kg b.w.; after oral Compound 1, 50 mg/kg; 6.00 h
Measure: concentration at 6 h (ng/mL)
Form entry: value (ng/mL) — number only.

Lookup: Sample O=C(Nc1nc(=O)n(Cc2ccc(Cl)cc2)s1)c1ccc(Cl)cc1 [Compound 1] — what was its concentration at 6 h?
Found: 17000

----------
# Protocol notes: Solubility of compounds at different pH
# Type: physicochemical
# Assay setup: 30 °C, thermodynamic from solid; 20 hours incubation; Ultrapure water; read-out: Absolute Solubility
Measure: solubility at 20 h (µg/mL)
Form entry: value (µg/mL) — number only.

Lookup: Sample O=C(/N=c1\sn(Cc2ccc(Cl)cc2)c(=O)n1COP(=O)([O-])[O-])c1ccc(Cl)cc1.[Na+].[Na+] [Compound 5] — what was its solubility at 20 h?
Found: 36

----------
# Protocol notes: Solubility of compounds at different pH
# Assay type: physicochemical
# Assay setup: 30 °C, thermodynamic from solid; 2 hours incubation; Ultrapure water; read-out: Absolute Solubility
Measure: solubility at 2 h (µg/mL)
Form entry: value (µg/mL) — number only.

Lookup: Sample O=C(/N=c1\sn(Cc2ccc(Cl)cc2)c(=O)n1COP(=O)([O-])[O-])c1ccc(Cl)cc1.[Na+].[Na+] — what was its solubility at 2 h?
Found: 419

----------
# Protocol notes: Single dose oral pharmacokinetic study of Compounds 1 and 3 in Sprague Dawley rats
# Type: in vivo
# Assay setup: male, Sprague Dawley, rat, plasma; after oral Compound 1, 50 mg/kg; 72.00 h
Measure: concentration at 72 h (ng/mL)
Form entry: value (ng/mL) — number only.

Lookup: Sample O=C(Nc1nc(=O)n(Cc2ccc(Cl)cc2)s1)c1ccc(Cl)cc1 — what was its concentration at 72 h?
Found: 0

----------
# Protocol notes: Single dose oral pharmacokinetic study of Compounds 1 and 3 in Sprague Dawley rats
# Type: in vivo
# Assay setup: male, Sprague Dawley, rat, plasma; after oral Compound 1, 50 mg/kg; 0.00 h
Measure: concentration at 0 h (ng/mL)
Form entry: value (ng/mL) — number only.

Lookup: Sample O=C(Nc1nc(=O)n(Cc2ccc(Cl)cc2)s1)c1ccc(Cl)cc1 — what was its concentration at 0 h?
Found: 0

----------
# Protocol notes: Single dose oral pharmacokinetic study of Compounds 1 and 3 in Sprague Dawley rats
# Type: in vivo
# Assay setup: male, Sprague Dawley, rat, plasma, 50 mg/kg b.w.; after oral Compound 1, 50 mg/kg; 2.00 h
# Method: 10.0 mL of 2% w/v methyl cellulose solution in phosphate buffer (pH 7.5) was added to a 100 mL conical flask along with 1 g of 2 mm glass beads. The solution was vigorously stirred on a magnetic stirrer. […] The pH of the formulation was measured to be 7.49. […] 10.0 mL of 2% w/v methyl cellulose solution in phosphate buffer (pH 7.5) was added to a 100 mL of conical flask together with 1 g of 2 mm glass beads. […] The pH of the formulation was measured to be 7.44. […]
Measure: concentration at 2 h (ng/mL)
Form entry: value (ng/mL) — number only.

Lookup: Sample O=C(Nc1nc(=O)n(Cc2ccc(Cl)cc2)s1)c1ccc(Cl)cc1 — what was its concentration at 2 h?
Found: 7990

----------
# Protocol notes: Single dose oral pharmacokinetic study of Compounds 1 and 3 in Sprague Dawley rats
# Type: in vivo
# Assay setup: male, Sprague Dawley, rat, plasma; after oral Compound 1, 50 mg/kg; 0.25 h
Measure: concentration at 0.25 h (ng/mL)
Form entry: value (ng/mL) — number only.

Lookup: Sample O=C(Nc1nc(=O)n(Cc2ccc(Cl)cc2)s1)c1ccc(Cl)cc1 — what was its concentration at 0.25 h?
Found: 620

----------
# Protocol notes: Solubility of compounds at different pH
# Type: physicochemical
# Assay setup: 30 °C, pH 9.2, aqueous buffer, thermodynamic from solid; 20 hours incubation; Alkaline Borate Buffer, pH 9.20; read-out: Absolute Solubility
Measure: solubility at 20 h (µg/mL)
Form entry: value (µg/mL) — number only.

Lookup: Sample O=C(/N=c1\sn(Cc2ccc(Cl)cc2)c(=O)n1COP(=O)([O-])[O-])c1ccc(Cl)cc1.[Na+].[Na+] [Compound 5] — what was its solubility at 20 h?
Found: 1240

Lookup: Sample O=C(Nc1nc(=O)n(Cc2ccc(Cl)cc2)s1)c1ccc(Cl)cc1 [Compound 1] — what was its solubility at 20 h?
Found: 44

----------
# Protocol notes: Single dose oral pharmacokinetic study of Compounds 1 and 3 in Sprague Dawley rats
# Type: in vivo
# Assay setup: male, Sprague Dawley, rat, plasma; after oral Compound 1, 50 mg/kg; 0.50 h
Measure: concentration at 0.5 h (ng/mL)
Form entry: value (ng/mL) — number only.

Lookup: Sample O=C(Nc1nc(=O)n(Cc2ccc(Cl)cc2)s1)c1ccc(Cl)cc1 — what was its concentration at 0.5 h?
Found: 1980

----------
# Protocol notes: Single dose oral pharmacokinetic study of Compounds 1 and 3 in Sprague Dawley rats
# Type: in vivo
# Assay setup: male, Sprague Dawley, rat, plasma, 50 mg/kg b.w.; after oral Compound 1, 50 mg/kg; 24.00 h
Measure: concentration at 24 h

Lookup: Sample O=C(Nc1nc(=O)n(Cc2ccc(Cl)cc2)s1)c1ccc(Cl)cc1 [Compound 1] — what was its concentration at 24 h?
Found: 9440 ng/mL

Where these numbers come from: patent US12643918B2
